Recorded Inhibition by entry
# System: Acinetobacter baumannii
# measurementDescription: Antibacterial activity against Acinetobacter baumannii ATCC 19606 (CO-ADD:GN_034); MIC in CAMBH media using NBS plates, by Resazurin F(560/590)
# Format: functional
# experimentalSetup: Concentration 20 uM, ASSAY_TEST Inhibition of Bacterial Growth, detection method Resazurin, Fluorescence (ex560/em590), MEDIA CAMHB, plate type 384well, CORNING #3640, time 18 hr
Return type: number; implicit unit %.

Examples from the recorded data:
N[C@H](C(=O)O)[C@H]1ON=C(Cl)[C@@H]1O :: -0.47
CCC(C)N=C(S)Nc1ccccc1 (stereo not given) :: 6.89
O=S(=O)(c1ccc2c(c1)CCCN2)N1CCC[C@H]2CCCC[C@@H]21 :: -20.33
CS(=O)(=O)Oc1ccc(Br)c2cccnc12 :: 10.16
COc1ccc(NC(=O)N2CCN(C(=O)Nc3ccc(OC)cc3)CC2)cc1 :: 9.56

(Q) # query: Inhibition of entry CC(C)(c1cc(Cl)c(O)c(CN2CCOCC2)c1)c1cc(Cl)c(O)c(CN2CCOCC2)c1
(A) 0.12

(Q) # query: Inhibition of entry COc1ccc([N+](=O)[O-])cc1NS(=O)(=O)c1ccc(C)cc1
(A) 4.99

(Q) # query: Inhibition of entry CCN1CCCCC(=N\O)/C(=N/O)CCCC1
(A) -8.24

(Q) # query: Inhibition of entry O=C(c1ccccc1)C1N=NCC1c1ccc(Cl)cc1 (stereo not given)
(A) 1.64

(Q) # query: Inhibition of entry NC(=O)NC(=O)c1nccnc1C(=O)O
(A) -16.67

(Q) # query: Inhibition of entry Cc1ccccc1N=C(S)Nc1ccccn1
(A) 17.16

(Q) # query: Inhibition of entry CCC(CO)Nc1nc2ccc(Cl)cc2c2ccccc12 (stereo not given)
(A) 5.43

(Q) # query: Inhibition of entry COc1cc(C(=O)C(=O)c2ccc(O)c(OC)c2)ccc1O
(A) -13.36
